Taken from the supplement of paper PMC6555819.

Tested on: PXR:RXRa (NR concentration 270 nM, RXRa partner concentration 90 nM)
measurement-description: PBM binding z-score (relative to random genomic background probes); higher = stronger binding; sequences stand for … in GC…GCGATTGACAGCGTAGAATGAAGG
experimental-endpoint: PBM binding z-score
Give bare numbers.

# annotated cases, reported PBM binding z-score shown
residue-codes	PBM binding z-score
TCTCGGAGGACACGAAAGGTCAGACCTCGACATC	4.1
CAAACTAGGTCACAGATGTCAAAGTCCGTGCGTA	2.47
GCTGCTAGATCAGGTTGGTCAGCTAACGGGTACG	-0.686
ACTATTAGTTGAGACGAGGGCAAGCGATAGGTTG	1.05
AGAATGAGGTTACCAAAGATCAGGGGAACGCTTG	1.59
TCTTGTAGATCAATAGAGGTCAAGAAAGTGCGCT	5.53
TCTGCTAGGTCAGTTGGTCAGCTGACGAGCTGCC	0.0252
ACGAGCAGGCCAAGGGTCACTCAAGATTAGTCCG	3.15

// each listed sequence needs a value for PBM binding z-score
1. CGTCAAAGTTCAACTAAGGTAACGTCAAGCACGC
2. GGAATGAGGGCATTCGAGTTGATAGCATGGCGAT
3. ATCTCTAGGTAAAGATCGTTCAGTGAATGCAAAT
4. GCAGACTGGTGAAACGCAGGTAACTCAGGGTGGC

[5.69, 4.13, -0.16, -0.855]
